Target: human p38 kinase alpha (Homo sapiens, UniProt Q16539)
Construct: The coding region of the human p38a cDNA was obtained by PCR-amplification from RNA isolated from the human monocyte cell line THP.1; GST (N); made in house; host or cells: E. coli DH10B
Sequence (Q16539 whole entry): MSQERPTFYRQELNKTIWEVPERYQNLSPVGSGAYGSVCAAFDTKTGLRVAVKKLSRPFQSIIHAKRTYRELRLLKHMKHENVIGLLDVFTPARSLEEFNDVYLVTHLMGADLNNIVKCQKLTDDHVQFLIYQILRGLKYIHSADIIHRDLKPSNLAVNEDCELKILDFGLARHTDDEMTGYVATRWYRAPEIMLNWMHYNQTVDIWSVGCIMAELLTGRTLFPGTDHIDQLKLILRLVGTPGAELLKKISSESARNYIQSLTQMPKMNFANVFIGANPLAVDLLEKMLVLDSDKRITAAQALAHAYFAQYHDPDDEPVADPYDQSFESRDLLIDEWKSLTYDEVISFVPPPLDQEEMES
Experiment: p38 kinase in vitro assay, phosphorylation of biotinylated PHAS-I with gamma 32P-ATP
Format: biochemical
Conditions: @ 10.0 uM; read-out: P38 alpha kinase % inhib @ conc.
VALUE_TYPE: inhibition at 10 µM (%)
Give the quantity in %, number only.

- MOLECULE: "CCOC(=O)c1cccc(NC(=O)NCc2[nH]nc(-c3ccc(F)cc3)c2-c2ccncc2)c1"
  SYSTEM: "human p38 kinase alpha (Homo sapiens, UniProt Q16539)"
  inhibition at 10 µM (%): 65
- MOLECULE: "CC(=O)Nc1nc(C)c(S(=O)(=O)NCc2[nH]nc(-c3ccc(F)cc3)c2-c2ccncc2)s1"
  SYSTEM: "human p38 kinase alpha (Homo sapiens, UniProt Q16539)"
  inhibition at 10 µM (%): 72
- MOLECULE: "O=C(NCc1[nH]nc(-c2ccc(F)cc2)c1-c1ccncc1)Nc1ccc(Cl)c(Cl)c1"
  SYSTEM: "human p38 kinase alpha (Homo sapiens, UniProt Q16539)"
  inhibition at 10 µM (%): 33

Query string: Which measured inhibition at 10 µM belongs to CC(C)c1ccc(NC(=O)NCc2[nH]nc(-c3ccc(F)cc3)c2-c2ccncc2)cc1 , tested on human p38 kinase alpha (Homo sapiens, UniProt Q16539)?
Result string: 12

Query string: Look up inhibition at 10 µM with human p38 kinase alpha (Homo sapiens, UniProt Q16539) for this molecule: CCCCN(CCCC)c1cccc2c(S(=O)(=O)NCc3[nH]nc(-c4ccc(F)cc4)c3-c3ccncc3)cccc12
Result string: 54

Query string: Can you look up inhibition at 10 µM on human p38 kinase alpha (Homo sapiens, UniProt Q16539) for CCOC(=O)C(CC(C)C)NC(=O)NCc1[nH]nc(-c2ccc(F)cc2)c1-c1ccncc1 (stereo not shown) ?
Result string: 42

Query string: # returns recorded inhibition at 10 µM (system: human p38 kinase alpha (Homo sapiens, UniProt Q16539)) for CCOC(=O)C(NC(=O)NCc1[nH]nc(-c2ccc(F)cc2)c1-c1ccncc1)C(C)C (stereo not shown)
Result string: 70

---

# maps each entry to its melting point

Field: example entries. Status: answers known.
- COMPOUND: "COc1ccc(CSc2[nH]nc(-c3ccc(F)cc3)c2-c2ccncc2)cc1"
  melting point: "214.7 to 215.8 °C"
- COMPOUND: "Cc1c(-c2ccncc2)c(-c2ccc(Cl)cc2)nn1C"
  melting point: "82 to 88 °C"

Query string: Reported melting point, compound COc1ccc(C[S+]([O-])c2[nH]nc(-c3ccc(F)cc3)c2-c2ccncc2)cc1 (stereo not drawn) : ____
Result string: 189.5 °C

Query string: Using the record for CCc1ccc(C(=O)C(=C2SCS2)c2ccncc2)cc1 , report its melting point.
Result string: 174.8 to 175 °C

Query string: Given COc1ccc(-c2n[nH]c(N3CCN(C)CC3)c2-c2ccncc2)cc1 , state its recorded melting point.
Result string: 259 to 260.2 °C

Query string: Which value of melting point has been reported for CN1CCN(c2[nH]nc(-c3ccc(F)cc3)c2-c2ccncc2)CC1 (hydrate or solvate) [Example A-317, dihydrate] in the records?
Result string: 262 to 264 °C

Query string: Please give the measured melting point for this compound: Cc1ccc(C(=O)C(=C2SCS2)c2ccncc2)cc1C
Result string: 198.8 to 198.9 °C

Query string: // lookup melting point for Fc1ccc(-c2n[nH]c(S)c2-c2ccncc2)cc1
Result string: 261.3 to 263.9 °C

Query string: // query melting point value for entry NNc1nccc(-c2cn[nH]c2-c2ccc(F)cc2)n1
Result string: 149 to 150 °C

Query string: Entry under review: NNc1cc(-c2c[nH]nc2-c2cccc(Cl)c2)ccn1 . Reported melting point?
Result string: 163 to 164 °C

Query string: Given the compound CNC(=O)c1cc(-c2cn[nH]c2-c2ccc(F)cc2)ccn1 , what is its reported melting point?
Result string: 88 to 89 °C

Query string: Need melting point of Cc1cc(C(=O)C(=C2SCS2)c2ccncc2)ccc1Cl , thanks.
Result string: 164 to 165 °C

Query string: Look up melting point for this compound: O=C(O)C1CC1c1c(-c2ccncc2)c(-c2ccc(F)cc2)nn1CCO (stereo not drawn)
Result string: 253 to 255 °C

Query string: Item under review: Fc1ccc(-c2[nH]nc(-c3ccccc3)c2-c2ccncc2)cc1 . Reported melting point?
Result string: 265 to 267 °C

Query string: Would you mind telling me what melting point value was observed for C#CCSc1[nH]nc(-c2ccc(Cl)cc2)c1-c1ccncc1 ?
Result string: 212.7 to 213.2 °C

Query string: Fill blank: measured melting point of the compound CCNc1cc(-c2c[nH]nc2-c2cccc(Cl)c2)ccn1 is ____.
Result string: 186 to 187 °C

Query string: Fill blank: measured melting point of the compound Clc1cccc(-c2n[nH]cc2-c2ccnc(NCc3ccccc3)c2)c1 is ____.
Result string: 179 to 180 °C

Query string: Which melting point is listed for Clc1ccc(-c2n[nH]c(SCc3nc4ccccc4[nH]3)c2-c2ccncc2)cc1 ?
Result string: 257.7 °C

---

pIC50 values by entry
Test system: TNF-α
Experiment: LPS stimulation of TNF production by U937 cells
Format: cell-based, human
Settings: Homo sapiens, U-937, TNF production, LPS-stimulated human U937 cells; read-out: U937 Cell IC50
Convention used: pIC50 is expressed as -log10 of the molar concentration.

Sample records with pIC50:
- STRUCTURE_AS_SMILES: "CC(=O)NCc1[nH]nc(-c2ccc(F)cc2)c1-c1ccncc1"
  SYSTEM: "TNF-α"
  VALUE_TYPE: "pIC50"
  VALUE_MEASURED: 6.72
- STRUCTURE_AS_SMILES: "CCCCS(=O)(=O)NCc1[nH]nc(-c2ccc(F)cc2)c1-c1ccncc1"
  SYSTEM: "TNF-α"
  VALUE_TYPE: "pIC50"
  VALUE_MEASURED: 5.30
- STRUCTURE_AS_SMILES: "O=C(NCc1[nH]nc(-c2ccc(F)cc2)c1-c1ccncc1)c1c(F)cc(F)cc1F"
  SYSTEM: "TNF-α"
  VALUE_TYPE: "pIC50"
  VALUE_MEASURED: 5.67

Please look at the following molecule next.
Query string: Report pIC50 for COc1ccccc1C(=O)NCc1[nH]nc(-c2ccc(F)cc2)c1-c1ccncc1 please.
Result string: 5.35

---

Target: human p38 kinase alpha (Homo sapiens, UniProt Q16539)
Construct: The coding region of the human p38a cDNA was obtained by PCR-amplification from RNA isolated from the human monocyte cell line THP.1; GST (N); made in house; host or cells: E. coli DH10B
Assay: p38 kinase in vitro assay, phosphorylation of biotinylated PHAS-I with gamma 32P-ATP
Assay type: biochemical
Conditions: read-out: P38 alpha kinase IC50
VALUE_TYPE: pIC50
Notebook: values listed as pIC50 are -log10 of the concentration (mol/L).

Known results for molecules:
- MOLECULE: "Cc1ccc(C(=O)NC(C)c2[nH]nc(-c3ccc(F)cc3)c2-c2ccncc2)cc1 (stereo not drawn) [Example B-0551]"
  pIC50: 5.97
- MOLECULE: "CC(C)OC(=O)NCc1[nH]nc(-c2ccc(F)cc2)c1-c1ccncc1 [Example B-0205]"
  pIC50: 7.02
- MOLECULE: "COc1ccc(Cl)cc1S(=O)(=O)NC(C)c1[nH]nc(-c2ccc(F)cc2)c1-c1ccncc1 (stereo not drawn) [Example B-0655]"
  pIC50: 5.90

Query string: # get_value(readout='pIC50', item= CC(=O)O[C@@H](C)C(=O)NCc1[nH]nc(-c2ccc(F)cc2)c1-c1ccncc1 [Example B-0083] )
Result string: 6.66

Query string: For O=C(NCc1[nH]nc(-c2ccc(F)cc2)c1-c1ccncc1)c1c(F)cccc1F [Example B-0298] , what is its reported pIC50?
Result string: 6.24

Query string: Which pIC50 value belongs to CC(C)S(=O)(=O)N[C@H](C)c1[nH]nc(-c2ccc(F)cc2)c1-c1ccncc1 [Example B-0387] ?
Result string: 6.39

Query string: Which pIC50 is reported for this molecule? CC(=O)N1CCC(c2[nH]nc(-c3ccc(F)cc3)c2-c2ccncc2)CC1 [Example C-113]
Result string: 7.09

---

Molecular target: human p38 kinase alpha (Homo sapiens)
Construct: The coding region of the human p38a cDNA was obtained by PCR-amplification from RNA isolated from the human monocyte cell line THP.1; GST (N); made in house; host or cells: E. coli DH10B
Assay: p38 kinase in vitro assay, phosphorylation of biotinylated PHAS-I with gamma 32P-ATP
Assay type: biochemical
Settings: P38 alpha kinase IC50, μM
VALUE_TYPE: IC50 (µM)
Kindly answer with a numeric value in µM, unit omitted.

Query string: Report IC50 for CC(=N)N1CCC(c2[nH]nc(-c3ccc(F)cc3)c2-c2ccncc2)CC1 [Example C-107] please.
Result string: 0.014
